- TARGET UNDER TEST: GGTase
- ASSAY OVERVIEW: Inhibition of GGTase-mediated prenylation (in vitro prenylation assay)
- TEST CONTEXT: Table 1; partially purified GGTase, 5 μM recombinant H-ras (61L, CAIL), 1 μM [3H] geranylgeranyl diphosphate
pIC50: −log10 of the molar value.
MEASURE: pIC50

[1] CC(C)C[C@H](NC(=O)c1cc(C/C=C/C(N)CS)ccc1-c1ccccc1)C(=O)O (stereo partly shown) [PM131]
[2] CC(C)COC(=O)[C@H](CCS(C)(=O)=O)NC(=O)c1cc(C/C=C/[C@@H](N)CS)ccc1-c1ccsc1 [PM072]
INPUT: For 1 and 2 , which recorded pIC50 is lower? Record your answer as the label of the chosen record.
OUTPUT: 2

[A] COC(=O)[C@H](CCSC)NC(=O)C(Cc1ccccc1)SC[C@@H](/C=C/C(N)CS)C(C)C (stereo partly shown) [PT011]
[B] COC(=O)[C@H](CCS(C)(=O)=O)NC(=O)C(Cc1cccs1)NC[C@@H](/C=C/C(N)CS)C(C)C (stereo partly shown) [PA011]
INPUT: For A and B , which recorded pIC50 is lower? Record your answer as the label of the chosen record.
OUTPUT: B
(B: 4.96, A: 6.20)

* * *

- TARGET UNDER TEST: FTase (Bos taurus, UniProt P29702+P49355)
- Construct: bovine brain by inference from the cited Moores et al. 1991
- ASSAY OVERVIEW: Inhibition of FTase-mediated prenylation (in vitro prenylation assay)
- TEST CONTEXT: Table 1; partially purified FTase, 3 μM recombinant H-ras, 440 nM [3H]FPP, 15 min 37° C
MEASURE: IC50 (nM)

[a] COC(=O)[C@H](CCSC)NC(=O)C(Cc1cccs1)N(C)C[C@@H](/C=C/C(N)CS)C(C)C (stereo partly shown) [PA131]
[b] CSCC[C@H](NC(=O)c1cc(C/C=C/[C@@H](N)CS)ccc1-c1cc(C(F)(F)F)cc(C(F)(F)F)c1)C(=O)O [PM042]
[c] CSCC[C@H](NC(=O)c1cc(C/C=C/C(N)CS)ccc1-c1ccccc1)C(N)=O (stereo partly shown) [PM081]
[d] COC(=O)[C@H](CCSC)NC(=O)C(Cc1ccccc1)OC[C@@H](/C=C/C(N)CS)C(C)C (stereo partly shown) [PE011]
INPUT: From the items above, give an ordering by IC50 that starts at the lowest reported number. Show the ranking through the labels, in the order asked for.
OUTPUT: a, d, c, b

* * *

- TARGET UNDER TEST: FTase (Bos taurus, UniProt P29702+P49355)
- Construct: bovine brain by inference from the cited Moores et al. 1991
- ASSAY OVERVIEW: Inhibition of FTase-mediated prenylation (in vitro prenylation assay)
- TEST CONTEXT: Table 1; partially purified FTase, 3 μM recombinant H-ras, 440 nM [3H]FPP, 15 min 37° C
pIC50: −log10 of the molar value.
MEASURE: pIC50

>>> numeric_result("CC(C)COC(=O)[C@H](CCS(C)(=O)=O)NC(=O)c1cc(C/C=C/[C@@H](N)CS)ccc1-c1ccsc1 [PM072]")
6.80

[1] CSCC[C@H](NC(=O)C(/C=C/[C@@H](/C=C/C(N)CS)C(C)C)C(C)C)C(=O)NCc1ccccn1 (stereo partly shown) [PD192]
[2] COC(=O)[C@H](CCSC)NC(=O)C(/C=C/[C@@H](/C=C/C(N)CS)C(C)C)C(C)C (stereo partly shown) [PD411]
INPUT: For 1 and 2 , which recorded pIC50 is lower? Record your answer as the label of the chosen record.
OUTPUT: 2

Values compiled from patent US5840918A.
